Where these numbers come from: the supplement of paper PMC10127200

tested on: OVCAR4; assay: Euclidean distance of Cell Painting phenotypic profile (signed KS, 77 features) to DMSO centroid (dimensionless distance); 5 or 10 uM (library dependent); higher = stronger phenotypic change vs DMSO (phenoactivity); conditions: 48 h
Structures can show the parent of a compound that is named as a salt.
Please respond with reported Euclidean distance for every item in the list.
One number for each entry.

Study these solved cases before continuing.
# input # query: Euclidean distance | item Cc1ncc(C[n+]2csc(CCO)c2C)c(N)n1 [Thiamine HCl (Vitamin B1)] | system: OVCAR4
# output 1.21

# input Another molecule: `COc1ccc(Cc2cnc(N)nc2N)cc1OC`
# output 1.42

# input Next record, please: NNc1nncc2ccccc12 [Hydralazine HCl]
# output 0.975

# input # repeat for `O=C(O)C1(C(=O)O)CCC1.[NH2-].[NH2-].[Pt+2]`
# output 2.66

# input What about CC1(C)CC[C@]2(NC(=O)C(C)(F)F)CC[C@]3(C)[C@H](C(=O)C=C4[C@@]5(C)C=C(C#N)C(=O)C(C)(C)[C@@H]5CC[C@]43C)[C@@H]2C1 [Omaveloxolone (RTA-408)] ?
# output 6.32

Please report Euclidean distance for every entry that follows.
1. Cc1cn(-c2cc(NC(=O)c3ccc(C)c(Nc4nccc(-c5cnccn5)n4)c3)cc(C(F)(F)F)c2)cn1
2. CCC[C@H](NC(=O)/C(C#N)=C/c1cccc(Br)n1)c1ccccc1 [Degrasyn (WP1130)]
3. CC(=O)Oc1cccc2c1C(=O)c1c(OC(C)=O)cc(C(=O)O)cc1C2=O
4. O=C(O)CCC(=O)Nc1ccc(S(=O)(=O)Nc2nccs2)cc1
5. C[C@]12CCC(=O)C=C1CC[C@@H]1[C@@H]2[C@@H](O)C[C@@]2(C)[C@H]1CC[C@]2(O)C(=O)CO [Hydrocortisone]

# output
1. 1.17
2. 4.93
3. 1.51
4. 2.02
5. 2.31

I would be grateful if you could provide Euclidean distance for each of the following entries.
1. Cn1cc(-c2ccc(S(=O)(=O)n3ccc(/C=C/C(=O)Nc4ccccc4N)c3)cc2)cn1
2. O=S(=O)(c1cccc2cnccc12)N1CCCNCC1 [Fasudil (HA-1077) HCl]
3. COc1cc2c(cc1OC)-c1cc3ccc(OC)c(OC)c3c[n+]1CC2
4. Fc1ccc(C(c2ccc(F)cc2)N2CCN(C/C=C/c3ccccc3)CC2)cc1 [Flunarizine 2HCl]
5. CC1(C)NC(=O)N(c2ccc([N+](=O)[O-])c(C(F)(F)F)c2)C1=O [Nilutamide]
6. CN(C)CCOC(C)(c1ccccc1)c1ccccn1 (configuration not stated) [Doxylamine Succinate]

# output
1: 3.37; 2: 0.851; 3: 0.631; 4: 1.24; 5: 0.959; 6: 1.14

Here are 8 molecules. What values of Euclidean distance were reported for them?
1. CO[C@H]1C[C@@H]2CC[C@@H](C)[C@@](O)(O2)C(=O)C(=O)N2CCCC[C@H]2C(=O)O[C@H]([C@H](C)C[C@@H]2CC[C@@H](OP(C)(C)=O)[C@H](OC)C2)CC(=O)[C@H](C)/C=C(\C)[C@@H](O)[C@@H](OC)C(=O)[C@H](C)C[C@H](C)/C=C/C=C/C=C/1C [Ridaforolimus (Deforolimus. MK-8669)]
2. Fc1ccc([C@@H]2CCNC[C@H]2COc2ccc3c(c2)OCO3)cc1 [Paroxetine HCl]
3. NS(=O)(=O)Cc1noc2ccccc12 [Zonisamide]
4. NC[C@H](O)c1ccc(O)c(O)c1 [Noradrenaline bitartrate monohydrate]
5. O=C(CCCCCCC(=O)NO)NO [Suberohydroxamic acid]
6. Cc1cc(-n2c(=O)[nH]c(=O)n(C)c2=O)ccc1Oc1ccc(SC(F)(F)F)cc1
7. CSc1nc2cc(Cl)c(Oc3cccc(Cl)c3Cl)cc2[nH]1
8. CCC(=O)Oc1ccc2c(c1)CCC1C2CCC2(C)C(OC(=O)CC)CCC12 (stereo not drawn) [17-Beta-Estradiol-3.17-Dipropionate]

# output
1: 2.04; 2: 1.54; 3: 1.9; 4: 0.846; 5: 1.28; 6: 1.41; 7: 0.772; 8: 0.98

Value sought for every listed molecule: Euclidean distance.
1. CC(C)(C)OC(=O)N[C@H]1CCCCC/C=C\[C@@H]2C[C@@]2(C(=O)NS(=O)(=O)C2CC2)NC(=O)[C@@H]2C[C@@H](OC(=O)N3Cc4cccc(F)c4C3)CN2C1=O
2. CN1C(C(=O)Nc2ccccn2)=C(O)c2sccc2S1(=O)=O
3. OC(CNCC(O)C1CCc2cc(F)ccc2O1)C1CCc2cc(F)ccc2O1 (configuration not stated)
4. O=C(Nc1c[nH]nc1-c1nc2ccc(CN3CCOCC3)cc2[nH]1)NC1CC1
5. CCC1(O)C(=O)OCc2c1cc1n(c2=O)Cc2c-1nc1ccccc1c2CCNC(C)C (configuration not stated) [Belotecan (CKD-602) hydrochloride]

# output
1: 1.69; 2: 1.22; 3: 1.58; 4: 2.7; 5: 3.62

Respectfully, I request Euclidean distance for each entry included below.
1. Nc1ccn([C@@H]2O[C@H](CO)[C@@H](O)[C@H]2O)c(=O)n1
2. O=C1c2cccc(O)c2C(=O)c2c(O)cc(CO)cc21
3. COc1cc2nccc(Oc3ccc(NC(=O)C4(C(=O)Nc5ccc(F)cc5)CC4)cc3)c2cc1OC

# output
1. 1
2. 1.41
3. 3.08
